- assay_notes: PK study
- Type: in vivo, cynomolgus
- conditions_used: cynomolgus monkey, plasma, iv; cynomolgus i.v. 2 mg kg^−1
measured_attribute: C0 (ng/mL)
I only need the number, in ng/mL, no unit after it.

In plain terms, COC(=O)N1CCN(C(=N)c2cccc(NC(=O)Nc3ccc(S(=O)(=O)NCc4ccc(S(N)(=O)=O)cc4)cc3)c2)CC1 [SC83288] has a documented C0 of 7340

###

- assay_notes: Permeability assay
- Format: in vitro ADME
- conditions_used: human; CACO 2 cells, 10 μM, apical side, 2 h
measured_attribute: Papp at 2 h, 10 μM (×10⁻⁶ cm/s)
I only need the number, in ×10⁻⁶ cm/s, no unit after it.

Sample records with Papp at 2 h, 10 μM:
INSERT INTO measurements (chem_smiles, units_symbol, meas_value) VALUES
  ('N=C(N)c1cccc(NC(=O)Nc2ccc(S(=O)(=O)NCc3ccc(S(N)(=O)=O)cc3)cc2)c1', '×10⁻⁶ cm/s', 0.28),
  ('COC(=O)N1CCN(C(=N)c2cccc(NC(=O)Nc3ccc(S(=O)(=O)NCc4ccc(S(N)(=O)=O)cc4)cc3)c2)CC1', '×10⁻⁶ cm/s', 0.42);

In plain terms, CCCCN1CCN(C(=N)c2cccc(NC(=O)Nc3ccc(S(=O)(=O)NCc4ccc(S(N)(=O)=O)cc4)cc3)c2)CC1 has a documented Papp at 2 h, 10 μM of 0.76

###

- assay_notes: PK study
- Format: in vivo, mouse
- conditions_used: mouse, plasma, iv, 2 mg/kg, mouse i.v. 2 mg kg^−1; read-out: t1/2 initial
measured_attribute: half-life (min)
I only need the number, in min, no unit after it.

In plain terms, COC(=O)N1CCN(C(=N)c2cccc(NC(=O)Nc3ccc(S(=O)(=O)NCc4ccc(S(N)(=O)=O)cc4)cc3)c2)CC1 [SC83288] has a documented half-life of 9

###

- assay_notes: Solubility in water
- conditions_used: water
measured_attribute: solubility
Write your answer as a measured quantity: the number, then the unit.

Sample records with solubility:
INSERT INTO assay_data (molecule, meas_value) VALUES
  ('N=C(N)c1cccc(NC(=O)Nc2cccc(C(=N)N)c2)c1 [amicarbalide, reference compound]', '100 µg/mL'),
  ('N=C(N)c1cccc(NC(=O)Nc2ccc(S(=O)(=O)NCc3ccc(S(N)(=O)=O)cc3)cc2)c1', '316 µg/mL'),
  ('COC(=O)N1CCN(C(=N)c2cccc(NC(=O)Nc3ccc(S(=O)(=O)NCc4ccc(S(N)(=O)=O)cc4)cc3)c2)CC1', '940 µg/mL');

In plain terms, CCCCN1CCN(C(=N)c2cccc(NC(=O)Nc3ccc(S(=O)(=O)NCc4ccc(S(N)(=O)=O)cc4)cc3)c2)CC1 has a documented solubility of 890 µg/mL

###

- assay_notes: PK study
- Assay type: in vivo, rat
- conditions_used: plasma, iv; rat i.v. 2 mg kg^−1; read-out: MRT0-t
measured_attribute: MRT last (h)
I only need the number, in h, no unit after it.

In plain terms, COC(=O)N1CCN(C(=N)c2cccc(NC(=O)Nc3ccc(S(=O)(=O)NCc4ccc(S(N)(=O)=O)cc4)cc3)c2)CC1 [SC83288] has a documented MRT last of 1.25

###

- assay_notes: PK study
- Format: in vivo
- conditions_used: beagle, plasma, iv; dog i.v. 1.7 mg kg^−1
measured_attribute: C0

In plain terms, COC(=O)N1CCN(C(=N)c2cccc(NC(=O)Nc3ccc(S(=O)(=O)NCc4ccc(S(N)(=O)=O)cc4)cc3)c2)CC1 has a documented C0 of 5580 ng/mL

###

- assay_notes: PK study
- Format: in vivo, mouse
- conditions_used: mouse, plasma, iv, 2 mg/kg, mouse i.v. 2 mg kg^−1; read-out: t1/2 effective
measured_attribute: half-life (min)
I only need the number, in min, no unit after it.

In plain terms, COC(=O)N1CCN(C(=N)c2cccc(NC(=O)Nc3ccc(S(=O)(=O)NCc4ccc(S(N)(=O)=O)cc4)cc3)c2)CC1 [SC83288] has a documented half-life of 12

###

- assay_notes: PK study
- Assay type: in vivo, mouse
- conditions_used: plasma, ip; mouse i.p. 20 mg kg^−1
- Method: On the treatment day, all animals were weighed and the dosing volume was calculated for each individual animal according to its actual body weight. All animal were dosed once. Blood samples were taken at different time points and plasma was collected after centrifugation (10,000g, 10 min, 4 °C). Plasma samples were analysed by LC–MS/MS. […] All relevant observations were recorded. […]
measured_attribute: Cmax (ng/mL)
I only need the number, in ng/mL, no unit after it.

In plain terms, CCCCN1CCN(C(=N)c2cccc(NC(=O)Nc3ccc(S(=O)(=O)NCc4ccc(S(N)(=O)=O)cc4)cc3)c2)CC1 has a documented Cmax of 7380

###

- assayed_system: a2 (non-selective)
- assay_notes: Radioligand binding
- conditions_used: control compound; read-out: Control specific binding IC50
measured_attribute: pIC50
The read-out pIC50 is expressed as -log10 of concentration in moles per litre.

In plain terms, COC(=O)[C@@H]1[C@H]2C[C@H]3c4[nH]c5ccccc5c4CCN3C[C@@H]2CC[C@@H]1O [yohimbine, reference compound] has a documented pIC50 of 7.16

###

- assay_notes: PK study
- Format: in vivo, rat
- conditions_used: plasma, iv; rat i.v. 2 mg kg^−1
measured_attribute: clearance (L/h/kg)
I only need the number, in L/h/kg, no unit after it.

In plain terms, COC(=O)N1CCN(C(=N)c2cccc(NC(=O)Nc3ccc(S(=O)(=O)NCc4ccc(S(N)(=O)=O)cc4)cc3)c2)CC1 has a documented clearance of 1.41

###

- assay_notes: PK study
- Type: in vivo, mouse
- conditions_used: plasma, iv; mouse i.v. 2 mg kg^−1
- Description: On the treatment day, all animals were weighed and the dosing volume was calculated for each individual animal according to its actual body weight. All animal were dosed once. Blood samples were taken at different time points and plasma was collected after centrifugation (10,000g, 10 min, 4 °C). Plasma samples were analysed by LC–MS/MS. […] All relevant observations were recorded. […]
measured_attribute: AUC(0-inf) (ng·h/mL)
I only need the number, in ng·h/mL, no unit after it.

In plain terms, COC(=O)N1CCN(C(=N)c2cccc(NC(=O)Nc3ccc(S(=O)(=O)NCc4ccc(S(N)(=O)=O)cc4)cc3)c2)CC1 has a documented AUC(0-inf) of 891

###

- assay_notes: Solubility in water
- conditions_used: Supplementary Table 2
Reported Solubility in H2O is given for each of the following compounds.
I only need the number, in µg/mL, no unit after it.

INSERT INTO results (chem_smiles, measured_attribute, meas_value) VALUES
  ('N=C(c1cccc(NC(=O)Nc2ccc(S(=O)(=O)NCc3ccc(S(N)(=O)=O)cc3)cc2)c1)N1CCN(CCO)CC1', 'Solubility in H2O', 32);

// next entry
In plain terms, CCC(=O)N1CCN(C(=N)c2cccc(NC(=O)Nc3ccc(S(=O)(=O)NCc4ccc(S(N)(=O)=O)cc4)cc3)c2)CC1 has a documented Solubility in H2O of 32

###

- assay_notes: PK study
- Type: in vivo, rat
- conditions_used: plasma, iv; rat i.v. 2 mg kg^−1
measured_attribute: C0 (ng/mL)
I only need the number, in ng/mL, no unit after it.

In plain terms, COC(=O)N1CCN(C(=N)c2cccc(NC(=O)Nc3ccc(S(=O)(=O)NCc4ccc(S(N)(=O)=O)cc4)cc3)c2)CC1 has a documented C0 of 4380

###

- assay_notes: In vitro metabolism in liver microsomes
- conditions_used: human, liver microsomes
measured_attribute: microsomal CLint at 10 μM (µL/min/mg)
I only need the number, in µL/min/mg, no unit after it.

In plain terms, COC(=O)N1CCN(C(=N)c2cccc(NC(=O)Nc3ccc(S(=O)(=O)NCc4ccc(S(N)(=O)=O)cc4)cc3)c2)CC1 has a documented microsomal CLint at 10 μM of 75.8

###

- assayed_system: Ca2+ channel (L, verapamil site)
- assay_notes: Radioligand binding
- conditions_used: control compound; read-out: Control specific binding IC50
measured_attribute: IC50 (nM)
I only need the number, in nM, no unit after it.

In plain terms, COc1ccc(CCN(C)CCCC(C#N)(c2cc(OC)c(OC)c(OC)c2)C(C)C)cc1OC (stereo not shown) [D 600, reference compound] has a documented IC50 of 67

###

- assay_notes: PK study
- Format: in vivo, rat
- conditions_used: rat, plasma, iv, 2 mg/kg, rat i.v. 2 mg kg^−1; read-out: t1/2 terminal
measured_attribute: half-life (min)
I only need the number, in min, no unit after it.

In plain terms, COC(=O)N1CCN(C(=N)c2cccc(NC(=O)Nc3ccc(S(=O)(=O)NCc4ccc(S(N)(=O)=O)cc4)cc3)c2)CC1 has a documented half-life of 625
